# Tested on: TNF-α production
# procedureText: Human TNF-α production suppression test (LPS-stimulated peripheral blood mononuclear cells, ELISA)
# Type: cell-based
# cond: PBMC, compound 10 μg/mL, 24 hr, control well = 100, read-out: TNF-α production suppressive rate (%)
The entries below come with measured inhibition at 10 µg/mL values attached.
Record the value in %, omitting the unit from your answer.

Some compounds with recorded inhibition at 10 µg/mL:
CC(Oc1cscc1-c1cn(C2CCC(=O)NC2=O)nn1)c1ccccc1 (centres unmarked); 79
COc1cscc1-c1cn(C2CCC(=O)NC2=O)nn1 (centres unmarked); 83
CC(=O)c1ccc(-c2cn(C3CCC(=O)NC3=O)nn2)s1 (centres unmarked); 64
O=C1CCC(n2cc(-c3csc(CO)c3)nn2)C(=O)N1 (centres unmarked); 41

Please find the next compound below.
Enquiry: GET /values?readout=inhibition at 10 µg/mL&system=TNF-α production&item= O=C1CCC(n2cc(-c3cscc3OCc3ccncc3)nn2)C(=O)N1 (centres unmarked)
Return: 100

Values compiled from patent US11299485B2.
